molecular target: UK variant RBD (R319-F541 with N501Y), C-terminal 6-His (SARS-CoV-2, UniProt P0DTC2 319-541); test: sandwich dipstick, detector Ab5-AuNP

{"Binder": "1035709 (antibody, V domains shown) VH: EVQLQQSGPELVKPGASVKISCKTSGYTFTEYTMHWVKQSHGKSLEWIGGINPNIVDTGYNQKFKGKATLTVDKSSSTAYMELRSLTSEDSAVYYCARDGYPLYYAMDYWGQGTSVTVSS VL: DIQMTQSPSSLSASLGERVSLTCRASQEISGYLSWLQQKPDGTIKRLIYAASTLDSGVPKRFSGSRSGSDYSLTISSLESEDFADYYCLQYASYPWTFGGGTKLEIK", "detection sensitivity, µg/mL": 0.001}
